- Tgt: T1, His-tagged P3028 (human, not fully specified)
- T1 construct: the tag is put first after 'PGE73=His-tag-P3028'; also called PGE73; not shown: His-tag
- T1 peptide: {His‑tag}-VFDEFKPLVEEPQNLIK
- Method Notes: chip ELISA
No end group written: not given here.
We'd kindly ask you to apply these ELISA signal classes: zone 1 = under 200, zone 2 = from 200 up to 400, zone 3 = 400 and over

- Binder: "KKYDTFFVKLSLFTER [P28R L3Y]"
  Label Class: "zone 2"
- Binder: "KKLDSFFVKLSLFTER [P28R T5S]"
  Label Class: "zone 3"
- Binder: "AKLDTFFVKLSLFTER [P28R K1A]"
  Label Class: "zone 3"
- Binder: "KKLDTFFVKASLFTER [P28R L10A]"
  Label Class: "zone 3"
- Binder: "KKLDTFFVKLALFTER [P28R S11A]"
  Label Class: "zone 2"
- Binder: "KKLDTFFVKLSLDTER [P28R F13D]"
  Label Class: "zone 1"
- Binder: "KKLDTFFVKLSLMTER [P28R F13M]"
  Label Class: "zone 3"
- Binder: "KKLDTFFVKLSLFTEH [P28R R16H]"
  Label Class: "zone 2"
- Binder: "KKLDTFFVKLSLFTNR [P28R E15N]"
  Label Class: "zone 1"
- Binder: "KKLDLFFVKLSLFTER [P28R T5L]"
  Label Class: "zone 2"
- Binder: "KKLVTFFVKLSLFTER [P28R D4V]"
  Label Class: "zone 3"
- Binder: "KKLDTFFVKLLLFTER [P28R S11L]"
  Label Class: "zone 2"
- Binder: "KKKDTFFVKLSLFTER [P28R L3K]"
  Label Class: "zone 2"
- Binder: "KKIDTFFVKLSLFTER [P28R L3I]"
  Label Class: "zone 3"
- Binder: "KKLDTFFVKLHLFTER [P28R S11H]"
  Label Class: "zone 3"
- Binder: "KKLDTFFVKLSLWTER [P28R F13W]"
  Label Class: "zone 3"
- Binder: "KKLDTFFVKLSLFRER [P28R T14R]"
  Label Class: "zone 2"
- Binder: "KKLDTFFVALSLFTER [P28R K9A]"
  Label Class: "zone 1"
- Binder: "KKLDTFFVKVSLFTER [P28R L10V]"
  Label Class: "zone 3"
- Binder: "KILDTFFVKLSLFTER [P28R K2I]"
  Label Class: "zone 2"
- Binder: "KKLDEFFVKLSLFTER [P28R T5E]"
  Label Class: "zone 2"
- Binder: "KKLDTFFVKLSLFTWR [P28R E15W]"
  Label Class: "zone 2"
- Binder: "KKLDTFFHKLSLFTER [P28R V8H]"
  Label Class: "zone 2"
- Binder: "KKLDTFFYKLSLFTER [P28R V8Y]"
  Label Class: "zone 2"
- Binder: "IKLDTFFVKLSLFTER [P28R K1I]"
  Label Class: "zone 3"
- Binder: "KKLDTFFVKLSLFTEI [P28R R16I]"
  Label Class: "zone 1"
- Binder: "KSLDTFFVKLSLFTER [P28R K2S]"
  Label Class: "zone 2"
- Binder: "KKLDTFFVKLSLFTEE [P28R R16E]"
  Label Class: "zone 1"
